- target-or-system: IDO1 in Hela cancer cells (Homo sapiens, UniProt P14902)
- Construct: endogenous in cells
- Sequence (P14902 whole entry): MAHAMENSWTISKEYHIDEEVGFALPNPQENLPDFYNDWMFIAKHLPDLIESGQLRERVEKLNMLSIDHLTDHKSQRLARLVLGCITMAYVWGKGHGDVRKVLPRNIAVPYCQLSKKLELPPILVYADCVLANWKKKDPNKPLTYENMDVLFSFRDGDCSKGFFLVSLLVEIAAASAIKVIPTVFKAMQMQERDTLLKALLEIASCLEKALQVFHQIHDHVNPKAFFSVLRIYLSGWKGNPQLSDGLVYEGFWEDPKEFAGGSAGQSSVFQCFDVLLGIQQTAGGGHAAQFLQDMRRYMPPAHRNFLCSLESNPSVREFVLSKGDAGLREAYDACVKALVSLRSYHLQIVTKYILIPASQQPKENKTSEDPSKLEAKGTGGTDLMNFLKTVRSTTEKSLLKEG
- test-protocol: IDO1 Cellular Assay (kynurenine production in IFN-γ stimulated Hela cancer cells)
- condition-set: human IFN-γ 50 ng/mL, 48 hours incubation, kynurenine at 490 nm
value-kind: IC50

Example cases with answers are listed next.
INSERT INTO measurements (compound, observed_value) VALUES
  ('N#Cc1ccc(C(=O)N2C[C@@H]3C[C@@](O)(c4cc(Cl)cc5[nH]ncc45)C[C@@H]3C2)cc1', '1 to 5 µM'),
  ('O=C(Nc1ccccc1)N[C@H]1[C@@H]2C[C@@](O)(c3cc(Cl)cc4[nH]ncc34)C[C@@H]21', '1 to 5 µM'),
  ('O=C(C1CCOCC1)N1C[C@@H]2C[C@@](O)(c3cc(Cl)cc4cn[nH]c34)C[C@@H]2C1', '> 5 µM'),
  ('O=C(C1CC1)N1C[C@@H]2C[C@@](O)(c3cc(Cl)cc4[nH]ncc34)C[C@@H]2C1', '> 5 µM'),
  ('O[C@@]1(c2cc(Cl)cc3[nH]ncc23)C[C@H]2C[C@H]2C1', '1 to 5 µM');

# query: IC50 | item `NS(=O)(=O)N[C@H]1[C@@H]2C[C@@](O)(c3cc(Cl)cc4[nH]ncc34)C[C@@H]21` | system: IDO1 in Hela cancer cells (Homo sapiens, UniProt P14902) ≤ 0.5 µM

Now the same for O=C(N[C@@H]1[C@H]2C=C(c3cc(Cl)cc4[nH]ncc34)C[C@H]21)C1CC1 (racemic) > 5 µM

---

Listed below: pIC50 values for each entry.
- target-or-system: TDO2 in A172 cancer cells (Homo sapiens, UniProt P48775)
- Construct: endogenous in cells
- Sequence (P48775 whole entry): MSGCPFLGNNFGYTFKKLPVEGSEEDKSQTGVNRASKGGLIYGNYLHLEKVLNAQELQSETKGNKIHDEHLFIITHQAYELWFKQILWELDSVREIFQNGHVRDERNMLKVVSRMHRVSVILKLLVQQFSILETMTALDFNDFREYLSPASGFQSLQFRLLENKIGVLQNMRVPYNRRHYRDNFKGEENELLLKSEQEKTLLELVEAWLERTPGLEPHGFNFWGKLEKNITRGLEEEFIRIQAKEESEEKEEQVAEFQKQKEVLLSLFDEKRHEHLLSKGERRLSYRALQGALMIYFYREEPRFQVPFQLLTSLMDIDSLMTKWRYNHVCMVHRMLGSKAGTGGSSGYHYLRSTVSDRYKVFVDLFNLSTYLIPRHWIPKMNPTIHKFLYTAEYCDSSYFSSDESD
- test-protocol: TDO2 Cellular Assay (kynurenine production in A172 cancer cells)
- condition-set: L-Trp 1 mM, 24 hours incubation, kynurenine at 490 nm
pIC50: −log10 of the molar value.

INSERT INTO results (molecule, observed_value) VALUES
  ('O=C(Nc1ccccc1)N[C@H]1[C@@H]2C[C@@](O)(c3cc(Cl)cc4[nH]ncc34)C[C@@H]21 [Example 115]', '≥ 6.30'),
  ('O=C(c1ccccc1)N1C[C@@H]2C[C@@](O)(c3cc(Cl)cc4cn[nH]c34)C[C@@H]2C1 [Example 98]', '< 5.30'),
  ('CC(=O)N1C[C@@H]2CN(c3cc(C(F)(F)F)cc4cncn34)C[C@@H]2C1(C)C (racemic) [Example 51]', '< 5.30'),
  ('O=C(N[C@H]1[C@@H]2C[C@@](O)(c3cc(Cl)cc4[nH]ncc34)C[C@@H]21)C1CCOC1 (some centres unmarked) [Example 72]', '≥ 6.30'),
  ('CC(=O)N1CCCC2CN(c3cc(Cl)cc4[nH]ncc34)CC21 (centres unmarked) [Example 15]', '≥ 6.30'),
  ('O=S(=O)(N[C@H]1[C@@H]2C[C@@](O)(c3cc(Cl)cc4cn[nH]c34)C[C@@H]21)C1CC1 [Example 110]', '5.30 to 6.00'),
  ('O=C(N[C@H]1C[C@@H]2C[C@@](O)(c3cc(Cl)cc4[nH]ncc34)C[C@@H]2C1)c1cccc(Cl)c1 [Example 166]', '≥ 6.30'),
  ('O=C(N[C@H]1[C@@H]2C[C@@](O)(c3cc(Cl)cc4[nH]ncc34)C[C@@H]21)C1CCCO1 (some centres unmarked) [Example 75]', '≥ 6.30'),
  ('NS(=O)(=O)N[C@H]1[C@@H]2C[C@@](O)(c3cc(Cl)cc4[nH]ncc34)C[C@@H]21 [Example 140]', '≥ 6.30'),
  ('O=C(C1CC1)N1C[C@@H]2C[C@@](O)(c3cc(Cl)cc4[nH]ncc34)C[C@@H]2C1 [Example 38]', '≥ 6.30');

Return reported pIC50; argument: CS(=O)(=O)c1cccc(C(=O)N[C@H]2[C@@H]3C[C@@](O)(c4cc(Cl)cc5[nH]ncc45)C[C@@H]32)c1 [Example 153] ≥ 6.30

// next record O[C@@]1(c2cc(Cl)cc3cn[nH]c23)C[C@H]2C[C@H]2C1 [Example 118] 5.30 to 6.00

Another molecule to check: CNC(=O)N[C@H]1[C@@H]2C[C@@](O)(c3cc(Cl)cc4cn[nH]c34)C[C@@H]21 [Example 133] 5.30 to 6.00

One more molecule: CC(C)(C)OC(=O)N1C[C@@H]2C[C@@](O)(c3cc(Cl)cc4[nH]ncc34)C[C@@H]2C1 [Example 54] ≥ 6.30

---

- target-or-system: IDO1 in Hela cancer cells (Homo sapiens)
- Construct: endogenous in cells
- test-protocol: IDO1 Cellular Assay (kynurenine production in IFN-γ stimulated Hela cancer cells)
- condition-set: human IFN-γ 50 ng/mL, 48 hours incubation, kynurenine at 490 nm
pIC50: −log10 of the molar value.
The reader will find reported pIC50 values listed item by item below.

INSERT INTO measurements (compound, value_kind, observed_value) VALUES
  ('O=S(=O)(NC1CCCCC1)N[C@H]1[C@@H]2C[C@@](O)(c3cc(Cl)cc4[nH]ncc34)C[C@@H]21 [Example 123]', 'pIC50', '5.30 to 6.00'),
  ('CS(=O)(=O)N[C@H]1[C@@H]2C[C@@](O)(c3cc(Cl)cc4[nH]ncc34)C[C@@H]21 [Example 63]', 'pIC50', '6.00 to 6.30'),
  ('CS(=O)(=O)N[C@H]1[C@@H]2C[C@@](O)(c3cc(C(F)(F)F)cc4[nH]ncc34)C[C@@H]21 [Example 10]', 'pIC50', '5.30 to 6.00'),
  ('CS(=O)(=O)N1C[C@H]2CC(C(O)c3cc(Cl)cc4cn[nH]c34)C[C@H]2C1 (some centres unmarked) [Example 113]', 'pIC50', '5.30 to 6.00'),
  ('O=C(N[C@H]1[C@@H]2C[C@@](O)(c3cc(Cl)cc4[nH]ncc34)C[C@@H]21)c1cccc(Cl)c1 [Example 124]', 'pIC50', '≥ 6.30');

Request the reported pIC50 associated with CCNS(=O)(=O)N[C@H]1[C@@H]2C[C@@](O)(c3cc(Cl)cc4[nH]ncc34)C[C@@H]21 [Example 128] 6.00 to 6.30

# repeat for Cn1cc(C(=O)N[C@H]2[C@@H]3C[C@@](O)(c4cc(Cl)cc5[nH]ncc45)C[C@@H]32)cn1 [Example 155] 5.30 to 6.00

---

- target-or-system: Recombinant human IDO1 (Homo sapiens)
- Sequence (P14902 whole entry): as the sequence (P14902 whole entry) above
- test-protocol: IDO1 Enzymatic Assay
- condition-set: recombinant human IDO1 40 nM, L-tryptophan 100 μM, 40 min room temperature, N′-formylkynurenine absorbance 321 nm; read-out: IDO1 biochemical activity*
pIC50: −log10 of the molar value.
value-kind: pIC50

INSERT INTO results (compound, value_kind, observed_value) VALUES
  ('CC(=O)N1C[C@@H]2C[C@@](O)(c3cc(Cl)cc4[nH]ncc34)C[C@@H]2C1', 'pIC50', '< 6.00'),
  ('CC1(C)C2CN(c3cc(Cl)cc4[nH]ncc34)CC2CN1S(C)(=O)=O (single isomer, unassigned) [Example 1b]', 'pIC50', '6.30 to 7.00'),
  ('Cn1ncc2c(N3CC4CCN(S(C)(=O)=O)C4C3)cc(Cl)cc21 (stereo not shown)', 'pIC50', '< 6.00');

Could you now look at the following compound, please?
Given the entry `CS(=O)(=O)N1C[C@H]2CN(c3cc(Cl)cc4[nH]ncc34)C[C@H]2C1` , report its measured pIC50. < 6.00

---

Some compounds, each annotated with its measured IC50.
- target-or-system: TDO2 in A172 cancer cells (Homo sapiens, UniProt P48775)
- Construct: endogenous in cells; host or cells: A172 cancer cells
- test-protocol: TDO2 Cellular Assay (kynurenine production in A172 cancer cells)
- Format: cell-based
- condition-set: L-Trp 1 mM, 24 hours incubation, kynurenine at 490 nm

INSERT INTO measurements (smiles_record, target_or_system, observed_value) VALUES
  ('O=C(N[C@H]1[C@@H]2C[C@@](O)(c3cc(Cl)cc4[nH]ncc34)C[C@@H]21)c1ccc(Cl)cc1', 'TDO2 in A172 cancer cells (Homo sapiens, UniProt P48775)', '≤ 500 nM'),
  ('NC(=O)c1cccc(C(=O)N[C@H]2[C@@H]3C[C@@](O)(c4cc(Cl)cc5[nH]ncc45)C[C@@H]32)c1', 'TDO2 in A172 cancer cells (Homo sapiens, UniProt P48775)', '≤ 500 nM'),
  ('O=C(c1nc2cc(Cl)ccc2[nH]1)N1C[C@@H]2C[C@@](O)(c3cc(Cl)cc4[nH]ncc34)C[C@@H]2C1', 'TDO2 in A172 cancer cells (Homo sapiens, UniProt P48775)', '≤ 500 nM'),
  ('CC(=O)N1C[C@@H]2C[C@@](O)(c3cc(Cl)cc4cn[nH]c34)C[C@@H]2C1', 'TDO2 in A172 cancer cells (Homo sapiens, UniProt P48775)', '> 5000 nM'),
  ('CS(=O)(=O)N1C[C@H]2CN(c3cc(Cl)cc4[nH]ncc34)C[C@H]2C1', 'TDO2 in A172 cancer cells (Homo sapiens, UniProt P48775)', '≤ 500 nM');

Which IC50 reading was recorded for the compound `O=C(N[C@H]1[C@@H]2C[C@@](O)(c3cc(Cl)cc4[nH]ncc34)C[C@@H]21)c1cncc(Br)c1` ? ≤ 500 nM

`CS(=O)(=O)N[C@H]1[C@@H]2C[C@@](O)(c3cc(Cl)cc4[nH]ncc34)C[C@@H]21` ? ≤ 500 nM
